- Test system: OVCAR-8
- PROTOCOL: NCI tumour cell line growth inhibition, 48 h
The source made the active and inactive calls. No stated cut-off is given here; in the data, active = GI50 up to about 1.1 µM and inactive = higher.
For each entry below, report its GI50 value.

**Q:** Fill blank: measured GI50 of the molecule CCc1[nH]nc(C(N)=O)c1/N=N/N(C)C is ____.
**A:** 73.1 µM (inactive)

**Q:** Could you tell me which GI50 is on file for OCC(O)C(O)C(O)C(O)c1nc2cc(Cl)ccc2[nH]1 (stereo not given) ?
**A:** > 100 µM (inactive)

**Q:** Which GI50 is reported for this molecule? CC1C[C@]2(C)C(=O)N(c3ccccc3)C(=N)[C@@H]2N(C)c2ccccc21 (stereo not given in full)
**A:** > 100 µM (inactive)

**Q:** Name the recorded GI50 for CN(C)CC1CCC/C(=C\c2ccc(Cl)c(Cl)c2)C1=O (stereo not given) .
**A:** 3.18 µM (inactive)

**Q:** Look at this molecule and give its reported GI50. COc1ccc(/C=N/n2c(-c3ccccc3)n[nH]c2=O)c(OC)c1
**A:** 29.9 µM (inactive)

**Q:** What measured GI50 goes with O=C1c2ccccc2C(=O)N1CCN(CCN1C(=O)c2ccccc2C1=O)Cc1ccccc1 ?
**A:** > 100 µM (inactive)

**Q:** GET /values?readout=GI50&item= CCCCCCCCCCCCCCC1OC(=O)c2ccccc21 (stereo not given)
**A:** 55.8 µM (inactive)

**Q:** Any idea what its GI50 is? The molecule is CN(C)CCOc1ccc2c(c1)C/C(=C/c1ncc([N+](=O)[O-])n1C)C2=O
**A:** 1.43 µM (inactive)

**Q:** So what's the measured GI50 for this one? O=P1(N(CCCl)CCCl)NCCCO1 (stereo not given) [CYCLOPHOSPHAMIDE ANHYDROUS]
**A:** > 238 µM (inactive)

**Q:** Entry O=S(=O)(N/C(=N\O)Nc1ccc(Cl)cc1)c1cc(C(F)(F)F)cc(C(F)(F)F)c1 : reported GI50 = ?
**A:** 18.7 µM (inactive)

----------
- System: SK-MEL-2
- PROTOCOL: NCI tumour cell line growth inhibition, 48 h
Active and inactive are the calls of the source. Rule as the data show it: active = GI50 up to about 1.1 µM and inactive = higher. Non-standard residues stand in square brackets, D forms with d. Residues, ends and D or L forms follow the SMILES beside them. ξ: configuration not given here. Pentanoyl(2-O,4-OH,5-Cl) = O=C(O)C(O)CC(O)CCl; Ile(3ξ) = CCC(C)[C@H](N)C(=O)O; NMeV = CN[C@H](C(=O)O)C(C)C; NMeA = CN[C@@H](C)C(=O)O; βAla = NCCC(=O)O
Assignment: determine reported GI50 for the given molecules.

**Q:** Could you tell me which GI50 is on file for COc1ccc(/C=N/n2c(-c3ccccc3)n[nH]c2=O)c(OC)c1 ?
**A:** 48.2 µM (inactive)

**Q:** Given the molecule C[N+](C)(C)CC(=O)N/N=C/c1oc(-c2c(O)ccc3ccccc23)c(-c2c(O)ccc3ccccc23)c1[N+](=O)[O-] , what is its reported GI50?
**A:** 16.2 µM (inactive)

**Q:** For c1ccc2c(c1)NCc1cc3ccccc3nc1O2 , what is its reported GI50?
**A:** > 100 µM (inactive)

**Q:** Which GI50 reading was recorded for the molecule COc1cc(C(C)O)c[n+](CCc2c[nH]c3ccccc23)c1 (centres undefined) ?
**A:** > 100 µM (inactive)

**Q:** What value of GI50 has been reported for the following molecule? Nc1ccccc1S(=O)(=O)c1ccccc1
**A:** > 100 µM (inactive)

**Q:** Dear colleague, I am looking for the recorded GI50 of the following molecule: CN(C)CC1CCC/C(=C\c2ccc(Cl)c(Cl)c2)C1=O (centres undefined)
**A:** 6.52 µM (inactive)

**Q:** I have this molecule here, CC1=CP(=O)(c2c(C(C)C)cc(C(C)C)cc2C(C)C)CCC1Cl (centres undefined) , and I need its recorded GI50.
**A:** 16.1 µM (inactive)

**Q:** Can you look up the measured GI50 of Nc1ccc(N(S(=O)(=O)c2ccccc2)S(=O)(=O)c2ccccc2)c(Cl)c1 for me?
**A:** 31.3 µM (inactive)

**Q:** What value of GI50 has been reported for the following molecule? COc1ccc(Cl)cc1NC(=O)c1cccc([N+](=O)[O-])c1O
**A:** 4.17 µM (inactive)

**Q:** What measured GI50 goes with Clc1ccc2nc3c(c(-c4ccccc4)nn3-c3ccccc3)c(-c3ccccc3)c2c1 ?
**A:** > 100 µM (inactive)

**Q:** Fill blank: measured GI50 of the molecule COc1cc2c(=O)cnoc2cc1O is ____.
**A:** > 100 µM (inactive)

**Q:** Please look up its GI50: C/C(=N\NC(=O)CC(=O)N(C(=O)c1ccc(Cl)cc1)c1ccc(C)cc1)c1ccccc1O
**A:** > 100 µM (inactive)

**Q:** Returns the measured GI50 for the input molecule. Input: CCC(C)[C@@H]1NC(=O)[C@@H]2CCCN2C(=O)C(CC(O)CCl)OC(=O)CCNC(=O)[C@H](C)N(C)C(=O)[C@H](C(C)C)N(C)C1=O (some centres undefined) (cyclo([Ile(3ξ)][NMeV][NMeA][βAla][Pentanoyl(2-O,4-OH,5-Cl)]P))
**A:** 0.347 µM (active)

**Q:** What value of GI50 has been recorded for this entry: Cc1c(C(=O)OCc2ccccc2)[n+]([O-])c2cc(Cl)c(Cl)cc2[n+]1[O-]
**A:** 17.4 µM (inactive)

**Q:** # input molecule: O=c1c(-c2ccccc2)c2oc(c1-c1ccccc1)CS(=O)(=O)CCC2 ; wanted: its GI50
**A:** > 100 µM (inactive)

**Q:** I am curious: what GI50 value has been reported for CC1=NOC2(C1)C(=O)Nc1ccccc12 (centres undefined) ?
**A:** > 100 µM (inactive)

**Q:** Given the molecule NC1=NN(c2ccccc2)C(=O)C1C(=O)C(=O)NC1C2CC3CC(C2)CC1C3 (centres undefined) , what is its reported GI50?
**A:** > 100 µM (inactive)

**Q:** Reported GI50 for O=c1c2cc(S(=O)(=O)Nc3ccc(Cl)cc3Cl)ccc2ncn1NS(=O)(=O)c1cccc2ccccc12 : what is it?
**A:** 38.1 µM (inactive)

**Q:** For COc1c(-c2nc3ccc(N4CCN(C)CC4)nc3[nH]2)cc(OC)c2[nH]c(COC(C)=O)nc12 , what is its reported GI50?
**A:** 19.5 µM (inactive)

----------
- System: UACC-62
- PROTOCOL: NCI tumour cell line growth inhibition, 48 h
Active and inactive are the calls of the source. Cut-off read from the data, not from the text of the source: active = GI50 up to about 1.1 µM and inactive = higher.
MEASURED ATTRIBUTE: GI50

**Q:** Looking for the measured GI50 of COC(=O)C1CCC(=O)N1C(c1ccc(OC)cc1)c1ccc(OC)cc1 (stereo unspecified) , can you help?
**A:** > 100 µM (inactive)

**Q:** Requested field: GI50. Item: C=C1C(=O)C([Si](C)(C)C)=C2C=C(C)C3(CC3)C12C (stereo unspecified)
**A:** 14.7 µM (inactive)

**Q:** I am curious: what GI50 value has been reported for Cn1nc(-c2ccccc2NC(=O)C(F)(F)F)c(=O)n(C)c1=S ?
**A:** > 10 µM (inactive)

**Q:** Any idea what its GI50 is? The molecule is N/C=N/S(=O)(=O)c1ccc(NC(=O)COC(=O)c2cccc3c(=O)c4ccccc4[nH]c23)cc1
**A:** > 100 µM (inactive)

**Q:** Name the recorded GI50 for CC(C)N1[C@@H]2CCCC[C@H]2N(C(C)C)P1(=O)C(=O)/C=C/c1ccccc1 .
**A:** 2.57 µM (inactive)

**Q:** Can you share its GI50? I mean this molecule: CCCCCCC1OC23OC1CCC2C(O)CCC3O (stereo unspecified)
**A:** > 100 µM (inactive)

**Q:** Form field: reported GI50 of O=C(CSCC(=O)N/N=C\c1cc(Br)cc(Br)c1O)N/N=C\c1cc(Br)cc(Br)c1O
**A:** 18 µM (inactive)

**Q:** Query: GI50; subject: Cc1c(NC(=S)NC(=O)c2ccc([N+](=O)[O-])cc2)c(=O)n(-c2ccccc2)n1C
**A:** > 100 µM (inactive)

**Q:** For the molecule COc1ccc2ccccc2c1C1OC(=O)c2ccccc21 (stereo unspecified) , what GI50 is on record?
**A:** 80 µM (inactive)

**Q:** State the recorded GI50 for this entry: Cc1ccc(/C=C2\NC(=S)N(CN3CCCCC3)C2=O)cc1
**A:** 33.3 µM (inactive)

**Q:** Need GI50, item O=C1C(Cl)=C(OCCCCl)C(=O)c2c(O)ccc(O)c21
**A:** 1.77 µM (inactive)
